conditions: 393.15 K; 4000 kPa; Liquid
reported-metric: mass density (kg/m3)
Report the value in kg/m3 with no unit label.

Reference set (5 entries):
compound: CCCCCCn1cc[n+](C)c1.F[P-](F)(F)(F)(F)F [1-hexyl-3-methylimidazolium hexafluorophosphate]
unit-annotation: kg/m3
numeric-result: 1222.5
--
compound: CCCCCCCC[n+]1ccn(C)c1.F[B-](F)(F)F [1-methyl-3-octylimidazolium tetrafluoroborate]
unit-annotation: kg/m3
numeric-result: 1043.4
--
compound: CCCCn1cc[n+](C)c1.O=S(=O)([O-])C(F)(F)F [1-butyl-3-methylimidazolium trifluoromethanesulfonate]
unit-annotation: kg/m3
numeric-result: 1228.4
--
compound: CCCCn1cc[n+](C)c1.F[B-](F)(F)F [1-butyl-3-methylimidazolium tetrafluoroborate]
unit-annotation: kg/m3
numeric-result: 1138.4
--
compound: CCCCn1cc[n+](C)c1C.F[P-](F)(F)(F)(F)F [1-butyl-2,3-dimethylimidazolium hexafluorophosphate]
unit-annotation: kg/m3
numeric-result: 1278.8

Shift focus to the following entry.
[in] Looking for the measured mass density of CCCCCCCC[n+]1ccn(C)c1.F[P-](F)(F)(F)(F)F [1-octyl-3-methylimidazolium hexafluorophosphate] , can you help?
[out] 1169.1
